All values here come from ChEMBL document CHEMBL2177016.

Study target: PROBABLE TRANSMEMBRANE CARBONIC ANHYDRASE (CARBONATE DEHYDRATASE) (CARBONIC DEHYDRATASE) (Mycobacterium tuberculosis)
Sequence (P96878 whole entry): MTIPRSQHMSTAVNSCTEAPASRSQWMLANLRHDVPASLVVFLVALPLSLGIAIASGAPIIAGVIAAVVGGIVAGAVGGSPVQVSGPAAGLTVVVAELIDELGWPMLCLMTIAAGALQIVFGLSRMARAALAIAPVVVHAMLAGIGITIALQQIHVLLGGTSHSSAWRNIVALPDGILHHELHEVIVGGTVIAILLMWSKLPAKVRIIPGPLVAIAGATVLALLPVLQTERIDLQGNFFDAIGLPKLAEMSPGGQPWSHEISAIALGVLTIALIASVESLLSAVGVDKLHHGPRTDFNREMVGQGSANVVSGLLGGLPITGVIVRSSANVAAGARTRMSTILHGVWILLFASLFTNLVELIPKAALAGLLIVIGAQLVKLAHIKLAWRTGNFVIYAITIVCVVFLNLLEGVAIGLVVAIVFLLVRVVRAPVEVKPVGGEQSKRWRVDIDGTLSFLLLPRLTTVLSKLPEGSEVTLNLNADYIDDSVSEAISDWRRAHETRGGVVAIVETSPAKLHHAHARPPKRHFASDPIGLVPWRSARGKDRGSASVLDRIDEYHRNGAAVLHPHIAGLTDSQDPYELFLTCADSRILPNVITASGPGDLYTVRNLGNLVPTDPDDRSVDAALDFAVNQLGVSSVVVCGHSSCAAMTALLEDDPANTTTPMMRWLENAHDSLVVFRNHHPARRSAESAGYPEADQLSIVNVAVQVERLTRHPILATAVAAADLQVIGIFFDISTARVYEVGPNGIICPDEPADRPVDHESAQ
Readings of log10(Ki) for the listed compounds
The common logarithm of Ki in nM is what is listed.

chemical_smiles=NS(=O)(=O)c1ccc(-n2ncc3c2-c2ccc(Cl)cc2SC3)cc1 measured_result=2.50

Exercise: So what does the record say about log10(Ki) for NS(=O)(=O)c1ccc(-n2ncc3c2-c2ccc(C(F)(F)F)cc2SC3)cc1 ?
Solution: 2.38

Exercise: So what does the record say about log10(Ki) for NS(=O)(=O)c1ccc(-n2ncc3c2-c2cccnc2SC3)cc1 ?
Solution: 2.46

Exercise: So what does the record say about log10(Ki) for Cc1ccc2c(n1)SCc1cnn(-c3ccc(S(N)(=O)=O)cc3)c1-2 ?
Solution: 2.38

Exercise: So what does the record say about log10(Ki) for Cc1ccc(-c2cc(C(F)(F)F)nn2-c2ccc(S(N)(=O)=O)cc2)cc1 ?
Solution: 3.89

Exercise: So what does the record say about log10(Ki) for COc1ccc2c(c1)SCc1cnn(-c3ccc(S(N)(=O)=O)cc3)c1-2 ?
Solution: 2.88

---

Study target: Beta-carbonic anhydrase 1 (Mycobacterium tuberculosis, UniProt P9WPJ7)
Sequence (P9WPJ7 whole entry): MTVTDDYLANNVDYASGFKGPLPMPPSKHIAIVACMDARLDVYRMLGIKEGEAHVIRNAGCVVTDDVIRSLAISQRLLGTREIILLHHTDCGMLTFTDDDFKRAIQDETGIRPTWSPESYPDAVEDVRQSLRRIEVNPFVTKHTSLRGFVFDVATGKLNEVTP
With a cut-off of 400 nM, any Ki strictly below it is called 1; any Ki meeting it or above is called 0.

Before answering, review these 3 worked examples.
chemical_smiles=Cc1ccc2c(n1)SCc1cnn(-c3ccc(S(N)(=O)=O)cc3)c1-2 classification=1
chemical_smiles=COc1ccc2c(c1)SCc1cnn(-c3ccc(S(N)(=O)=O)cc3)c1-2 classification=0
chemical_smiles=NS(=O)(=O)c1ccc(-n2ncc3c2-c2cccnc2SC3)cc1 classification=1

Proceed to the following item.
Exercise: Strictly below 400 nM: is that where Ki of NS(=O)(=O)c1ccc(-n2ncc3c2-c2ccc(C(F)(F)F)cc2SC3)cc1 sits?
Solution: 0

---

Study target: Carbonic anhydrase 2 (Mycobacterium tuberculosis, UniProt P9WPJ9)
Sequence (P9WPJ9 whole entry): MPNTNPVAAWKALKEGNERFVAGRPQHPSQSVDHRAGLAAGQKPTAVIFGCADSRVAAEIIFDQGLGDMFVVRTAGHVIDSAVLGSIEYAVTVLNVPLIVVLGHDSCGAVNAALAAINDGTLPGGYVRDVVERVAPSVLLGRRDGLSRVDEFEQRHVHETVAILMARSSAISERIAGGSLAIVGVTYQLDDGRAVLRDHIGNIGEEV
With a cut-off of 300 nM, any Ki strictly below it is called 1.0; any Ki meeting it or above is called 0.0.

Before answering, review these 4 worked examples.
chemical_smiles=Cc1ccc2c(n1)SCc1cnn(-c3ccc(S(N)(=O)=O)cc3)c1-2 classification=1.0
chemical_smiles=NS(=O)(=O)c1ccc(-n2ncc3c2-c2ccc(Cl)cc2SC3)cc1 classification=1.0
chemical_smiles=NS(=O)(=O)c1ccc(-n2ncc3c2-c2cccnc2SC3)cc1 classification=1.0
chemical_smiles=COc1ccc2c(c1)SCc1cnn(-c3ccc(S(N)(=O)=O)cc3)c1-2 classification=0.0

Exercise: Strictly below 300 nM: is that where Ki of NS(=O)(=O)c1ccc(-n2ncc3c2-c2ccc(C(F)(F)F)cc2SC3)cc1 sits?
Solution: 0.0

---

As an illustration, consider measured pKi for compounds on Carbonic anhydrase 9 (Homo sapiens).
Give only the number. pKi is defined as minus log10 of concentration in molar units.

// known answers, use as guide
chemical_smiles=NS(=O)(=O)c1ccc(-n2ncc3c2-c2ccc(Cl)cc2SC3)cc1 measured_quantity=pKi measured_result=5.73
chemical_smiles=COc1ccc2c(c1)SCc1cnn(-c3ccc(S(N)(=O)=O)cc3)c1-2 measured_quantity=pKi measured_result=5.66
chemical_smiles=NS(=O)(=O)c1ccc(-n2ncc3c2-c2ccc(C(F)(F)F)cc2SC3)cc1 measured_quantity=pKi measured_result=5.59

Now consider the entry below.
Exercise: So what does the record say about pKi for NS(=O)(=O)c1ccc(-n2ncc3c2-c2cccnc2SC3)cc1 ?
Solution: 5.63
